# assayed.system: TNKS2 (Homo sapiens)
# Construct: purchased BPS Bioscience, San Diego, USA 80572 (TNKS2 Histone Ribosylation Assay Kit)
# Sequence (Q9H2K2 1-1166): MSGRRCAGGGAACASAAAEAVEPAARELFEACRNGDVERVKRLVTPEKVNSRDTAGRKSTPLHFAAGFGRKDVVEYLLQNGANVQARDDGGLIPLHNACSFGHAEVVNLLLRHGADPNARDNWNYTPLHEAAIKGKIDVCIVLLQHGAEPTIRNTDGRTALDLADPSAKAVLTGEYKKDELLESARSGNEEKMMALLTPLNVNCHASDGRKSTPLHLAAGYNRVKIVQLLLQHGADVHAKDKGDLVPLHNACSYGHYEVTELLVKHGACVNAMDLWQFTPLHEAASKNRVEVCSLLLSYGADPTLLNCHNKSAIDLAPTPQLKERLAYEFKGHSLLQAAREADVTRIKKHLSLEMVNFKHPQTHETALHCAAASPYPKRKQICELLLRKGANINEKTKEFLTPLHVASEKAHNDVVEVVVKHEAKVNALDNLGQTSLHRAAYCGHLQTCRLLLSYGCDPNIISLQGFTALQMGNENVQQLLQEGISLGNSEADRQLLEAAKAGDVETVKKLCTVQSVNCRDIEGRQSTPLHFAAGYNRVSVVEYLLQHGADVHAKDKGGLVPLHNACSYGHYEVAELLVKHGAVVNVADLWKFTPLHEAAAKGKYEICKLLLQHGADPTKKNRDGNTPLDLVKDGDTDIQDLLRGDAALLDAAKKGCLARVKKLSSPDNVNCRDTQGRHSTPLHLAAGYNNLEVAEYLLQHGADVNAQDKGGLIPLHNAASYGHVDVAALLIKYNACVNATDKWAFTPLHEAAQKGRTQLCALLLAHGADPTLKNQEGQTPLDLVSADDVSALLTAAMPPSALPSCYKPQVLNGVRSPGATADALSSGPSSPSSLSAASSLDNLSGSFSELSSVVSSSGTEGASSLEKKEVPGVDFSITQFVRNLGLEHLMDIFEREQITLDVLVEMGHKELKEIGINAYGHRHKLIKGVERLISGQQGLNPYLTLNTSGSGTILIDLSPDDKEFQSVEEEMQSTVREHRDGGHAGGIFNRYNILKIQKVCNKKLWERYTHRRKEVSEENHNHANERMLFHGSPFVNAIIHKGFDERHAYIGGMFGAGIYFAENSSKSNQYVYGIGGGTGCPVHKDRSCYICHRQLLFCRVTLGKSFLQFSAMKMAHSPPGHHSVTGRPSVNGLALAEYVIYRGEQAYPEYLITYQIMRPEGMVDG
# assay.remarks: TNKS2 Assay B (auto-parsylation, [3H]-NAD+ SPA)
# Format: biochemical
# cond: 6 nM TNKS2, auto-parsylation, over night at room temperature
# Protocol: The potency of selected compounds according to the invention was assessed applying a modified in vitro inhibition assay. Here, the TNKS2 catalyzed NAD^+-dependent ribosylation of the enzyme itself (auto-parsylation) was detected using [^3H]-NAD^+ as substrate and applying the scintillation proximity assay (SPA) method to detect tritium-labeled, parsylated TNKS2. The intensity of the readout signal is proportional to the incorporated [^3H]-NAD^+. […]
pIC50: −log10 of the molar value.
property.name: pIC50

smiles.input: O=C(N[C@H]1CC[C@@]2(CCN(c3c(F)cc(F)cc3Cl)C2=O)CC1)c1cnn2cccnc12
assayed.system: TNKS2 (Homo sapiens)
property.name: pIC50
test.result: 8.19

smiles.input: CCNC(=O)c1[nH]cnc1C(=O)N[C@H]1CC[C@@]2(CCN(c3ccc(F)cc3)C2=O)CC1
assayed.system: TNKS2 (Homo sapiens)
property.name: pIC50
test.result: 6.66

[A] O=C(N[C@H]1CC[C@@]2(CCN(c3ccc(F)cc3Cl)C2=O)CC1)c1[nH]cnc1C(=O)N1CC(C(F)F)C1
[B] O=C(NC[C@H]1CCCO1)c1nc[nH]c1C(=O)N[C@H]1CC[C@H](C(=O)Nc2ccc(F)cc2Cl)CC1
[C] O=C(N[C@H]1CC[C@@]2(CCCN(c3ccc(F)cc3Cl)C2=O)CC1)c1cnn2cccnc12
[D] O=C(NC12CCC(C(=O)Nc3c(F)cc(F)cc3Cl)(CC1)CC2)c1cnc2cccnn12
[E] CNC(=O)c1nc[nH]c1C(=O)N[C@H]1CC[C@H](C(=O)Nc2cccnc2Cl)CC1
[in] Provide the items ranked by increasing pIC50. Give the labels in the order requested.
[out] D, E, C, B, A
(D: 6.32, E: 6.62, C: 7.00, B: 7.30, A: 8.55)
